Test Target: ZRANB2 (UniProt O95218)
Sequence: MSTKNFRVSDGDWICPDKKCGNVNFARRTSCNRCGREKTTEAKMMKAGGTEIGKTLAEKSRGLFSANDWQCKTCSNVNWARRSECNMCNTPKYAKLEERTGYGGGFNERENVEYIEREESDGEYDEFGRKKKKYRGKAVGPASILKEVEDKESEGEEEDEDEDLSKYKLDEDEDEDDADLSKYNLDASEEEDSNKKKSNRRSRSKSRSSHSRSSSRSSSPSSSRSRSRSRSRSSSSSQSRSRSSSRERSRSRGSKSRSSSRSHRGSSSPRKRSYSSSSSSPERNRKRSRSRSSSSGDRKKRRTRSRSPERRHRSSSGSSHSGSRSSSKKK
Experiment Description: Kd (EC50 corrected by depletion factor)
Parameter: Kd (nM)
Field format: number, assumed nM, no unit text.

-- ask Which Kd is reported for this sequence? `AAUAAA`
-- reply 217

----------
Each entry below carries its reported pEC50.
Test Target: LSM1 (UniProt O15116)
Sequence: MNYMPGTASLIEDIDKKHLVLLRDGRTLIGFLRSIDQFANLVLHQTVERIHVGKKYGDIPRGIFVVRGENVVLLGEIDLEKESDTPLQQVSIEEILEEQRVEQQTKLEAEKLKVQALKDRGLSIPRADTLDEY
Experiment Description: EC50 of free RNA motif oligo competing protein binding to immobilised probe
Quick note: pEC50 means taking -log10 of the concentration in moles per liter.

Sequence String | pEC50
AAUAAA | 6.73

-- ask Which pEC50 is reported for this sequence? `UAUUUAU`
-- reply 6.40

----------
Test Target: IGF2BP1 (UniProt Q9NZI8)
Sequence (Q9NZI8 whole entry): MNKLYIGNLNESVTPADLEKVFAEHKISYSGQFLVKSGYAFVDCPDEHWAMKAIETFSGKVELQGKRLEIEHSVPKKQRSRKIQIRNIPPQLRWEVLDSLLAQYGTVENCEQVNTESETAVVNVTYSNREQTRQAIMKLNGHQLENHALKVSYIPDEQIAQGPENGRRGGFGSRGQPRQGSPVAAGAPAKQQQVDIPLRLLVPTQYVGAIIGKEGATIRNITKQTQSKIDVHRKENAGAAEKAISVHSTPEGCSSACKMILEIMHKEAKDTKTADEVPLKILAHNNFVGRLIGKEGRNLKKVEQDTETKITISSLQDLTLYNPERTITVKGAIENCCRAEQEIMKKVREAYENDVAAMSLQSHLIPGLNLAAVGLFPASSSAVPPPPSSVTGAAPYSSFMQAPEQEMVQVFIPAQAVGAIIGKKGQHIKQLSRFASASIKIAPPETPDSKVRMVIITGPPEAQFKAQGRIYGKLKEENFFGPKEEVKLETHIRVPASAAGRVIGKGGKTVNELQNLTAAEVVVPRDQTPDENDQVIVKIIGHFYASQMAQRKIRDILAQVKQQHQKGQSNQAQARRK
Experiment Description: Kd (EC50 corrected by depletion factor)
Parameter: Kd (nM)
Field format: number, assumed nM, no unit text.

-- ask Which Kd is reported for this sequence? `CUGUCCU`
-- reply 1240

----------
Test Target: TSN (UniProt Q15631)
Sequence (Q15631 whole entry): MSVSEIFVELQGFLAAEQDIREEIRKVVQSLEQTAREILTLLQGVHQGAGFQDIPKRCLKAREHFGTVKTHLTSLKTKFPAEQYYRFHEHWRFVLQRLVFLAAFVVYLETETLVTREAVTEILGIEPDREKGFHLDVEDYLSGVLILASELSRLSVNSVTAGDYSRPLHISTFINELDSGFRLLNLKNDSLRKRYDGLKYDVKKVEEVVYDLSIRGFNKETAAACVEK
Experiment Description: EC50 of free RNA motif oligo competing protein binding to immobilised probe
Parameter: pEC50
Quick note: pEC50 means taking -log10 of the concentration in moles per liter.

Sequence String | Parameter | Observed Result
UAUUUAU | pEC50 | 7.12

Continue with the next sequence.
-- ask Which pEC50 is reported for this sequence? `AAUAAA`
-- reply 7.23

----------
Each entry below carries its reported EC50.
Test Target: CPSF2 (UniProt Q9P2I0)
Sequence: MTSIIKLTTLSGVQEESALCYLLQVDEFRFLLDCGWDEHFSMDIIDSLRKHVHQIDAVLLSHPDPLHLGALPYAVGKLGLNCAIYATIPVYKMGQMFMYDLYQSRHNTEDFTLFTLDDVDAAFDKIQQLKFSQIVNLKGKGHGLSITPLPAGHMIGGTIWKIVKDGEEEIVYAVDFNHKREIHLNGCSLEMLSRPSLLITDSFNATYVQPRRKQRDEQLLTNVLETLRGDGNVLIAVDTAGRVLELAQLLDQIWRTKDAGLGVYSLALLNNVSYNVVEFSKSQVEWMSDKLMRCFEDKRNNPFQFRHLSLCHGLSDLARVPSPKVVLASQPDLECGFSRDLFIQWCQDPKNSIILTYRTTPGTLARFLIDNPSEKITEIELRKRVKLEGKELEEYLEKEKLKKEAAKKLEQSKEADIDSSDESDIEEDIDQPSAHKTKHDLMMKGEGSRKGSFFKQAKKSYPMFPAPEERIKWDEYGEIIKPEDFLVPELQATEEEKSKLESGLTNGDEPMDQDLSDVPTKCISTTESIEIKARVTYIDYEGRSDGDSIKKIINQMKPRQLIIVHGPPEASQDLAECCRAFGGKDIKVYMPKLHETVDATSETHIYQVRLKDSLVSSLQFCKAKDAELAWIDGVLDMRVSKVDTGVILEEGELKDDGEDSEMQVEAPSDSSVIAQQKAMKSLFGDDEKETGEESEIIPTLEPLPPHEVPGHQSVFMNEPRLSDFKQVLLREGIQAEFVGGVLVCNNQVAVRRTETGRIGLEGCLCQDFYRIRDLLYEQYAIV
Experiment Description: EC50 of free RNA motif oligo competing protein binding to immobilised probe

Sequence String | Test Target | Observed Result
AAUAAA | CPSF2 (UniProt Q9P2I0) | 0.0683 µM

Continue with the next sequence.
-- ask Which EC50 is reported for this sequence? `UAUUUAU`
-- reply 1.51 µM
